Test: AUC (0 to infinity) in Sprague-Dawley rat at 3 mg/kg, iv
Type: ADME, organism-based, Plasma
Parameters: time infinity, dose 3 mg/kg, route intravenous
Settings: Sprague-Dawley, plasma

query-smiles	AUC(0-inf) [ng·h/mL]
CC(C)OC(=O)C1=CN(C(=O)c2ccc(OCCCN3CCOCC3)cc2)CC(C)(C)c2c1[nH]c1cc(F)ccc21	960

====

Experiment: Tmax in C57 mouse at 30 mg/kg, po
Type: ADME, organism-based
Design: dose 30 mg/kg, route oral
Conditions: in vivo

query-smiles	Tmax / h
CC(C)OC(=O)C1=CN(C(=O)c2ccc(OCCN3CCOCC3)cc2)CC(C)(C)c2c1[nH]c1cc(F)ccc21	1

====

Test: Tmax in C57 mouse at 3 mg/kg, po
Type: ADME, organism-based
Parameters: dose 3 mg/kg, route oral
Details: in vivo

query-smiles	Tmax [h]
CC(C)OC(=O)C1=CN(C(=O)c2ccc(OCCCN3CCOCC3)cc2)CC(C)(C)c2c1[nH]c1cc(F)ccc21	1

====

Assay: Cmax in C57 mouse at 3 mg/kg, po
Assay type: ADME, organism-based
Design: dose 3 mg/kg, route oral
Details: in vivo

query-smiles	Cmax, ng/mL
CC(C)OC(=O)C1=CN(C(=O)c2ccc(OCCCN3CCOCC3)cc2)CC(C)(C)c2c1[nH]c1cc(F)ccc21	81

====

Assay: AUC (0 to infinity) in C57 mouse at 3 mg/kg, iv
Type: ADME, organism-based
Set-up: time infinity, dose 3 mg/kg, route intravenous
Settings: plasma

query-smiles	units-symbol	AUC(0-inf)
CC(C)OC(=O)C1=CN(C(=O)c2ccc(OCCCN3CCOCC3)cc2)CC(C)(C)c2c1[nH]c1cc(F)ccc21	ng·h/mL	1720
CC(C)OC(=O)C1=CN(C(=O)c2ccc(OCCN3CCOCC3)cc2)CC(C)(C)c2c1[nH]c1cc(F)ccc21	ng·h/mL	1260

====

Assay: Equilibrium solubility in 0.5% methylcellulose/2% Tween-80 in water
Type: physicochemical
Param threshold (300 µg/mL) applies to solubility thermodynamic; output Y when value >= threshold, N when value < threshold.

query-smiles	cat
CC(C)OC(=O)C1=CN(C(=O)c2ccc(OCCN3CCCCC3)cc2)CC(C)(C)c2c1[nH]c1ccccc21	N
CC(C)OC(=O)C1=CN(C(=O)c2cccc(OCCN3CCOCC3)c2)CC(C)(C)c2c1[nH]c1ccccc21	N
CC(C)OC(=O)C1=CN(C(=O)c2ccc(OCCN3CCOCC3)cc2)CC(C)(C)c2c1[nH]c1cc(F)ccc21	N
CC(C)OC(=O)C1=CN(C(=O)c2ccc(OCCN3CCCC3)cc2)CC(C)(C)c2c1[nH]c1ccccc21	N
CC(C)OC(=O)C1=CN(C(=O)c2ccc(OCCCN(C)C)cc2)CC(C)(C)c2c1[nH]c1ccccc21	Y
CC(C)OC(=O)C1=CN(C(=O)c2ccc(CN3CCOCC3)cc2)CC(C)(C)c2c1[nH]c1cc(F)ccc21	Y
CC(C)OC(=O)C1=CN(C(=O)c2ccc(OCCCN3CCCCC3)cc2)CC(C)(C)c2c1[nH]c1ccccc21	Y
CC(C)OC(=O)C1=CN(C(=O)c2ccc(OCCCN3CCOCC3)cc2)CC(C)(C)c2c1[nH]c1ccccc21	N

====

Assay: Cmax in C57 mouse at 30 mg/kg, po
Assay type: ADME, organism-based
Set-up: dose 30 mg/kg, route oral
Conditions: in vivo
quantity-name: Cmax (ng/mL)

query-smiles	assay-value
CC(C)OC(=O)C1=CN(C(=O)c2ccc(OCCN3CCOCC3)cc2)CC(C)(C)c2c1[nH]c1cc(F)ccc21	1130
